# System: NCI-H1437
# protocol.notes: relative viability (nuclei count vs DMSO), 5 days (fraction); higher = more cells survive
# stated.conditions: first compound 0.002 µM
metric.name: relative viability

INSERT INTO results (molecule, test_value) VALUES
  ('CC(=O)O[C@@]12CO[C@@H]1C[C@H](O)[C@@]1(C)C(=O)[C@H](O)C3=C(C)[C@@H](OC(=O)[C@H](O)[C@@H](NC(=O)OC(C)(C)C)c4ccccc4)C[C@@](O)([C@@H](OC(=O)c4ccccc4)[C@H]21)C3(C)C [Docetaxel] + Cc1cc(Nc2cc(N3CCN(C)CC3)nc(Sc3ccc(NC(=O)C4CC4)cc3)n2)n[nH]1 [Tozasertib] (partner 0.1 µM)', 0.241),
  ('CC(=O)O[C@@]12CO[C@@H]1C[C@H](O)[C@@]1(C)C(=O)[C@H](O)C3=C(C)[C@@H](OC(=O)[C@H](O)[C@@H](NC(=O)OC(C)(C)C)c4ccccc4)C[C@@](O)([C@@H](OC(=O)c4ccccc4)[C@H]21)C3(C)C [Docetaxel] + CC1(C)CCC(c2ccc(Cl)cc2)=C(CN2CCN(c3ccc(C(=O)NS(=O)(=O)c4ccc(N[C@H](CCN5CCOCC5)CSc5ccccc5)c(S(=O)(=O)C(F)(F)F)c4)cc3)CC2)C1 [Navitoclax] (partner 0.5 µM)', 0.182),
  ('CC(=O)O[C@@]12CO[C@@H]1C[C@H](O)[C@@]1(C)C(=O)[C@H](O)C3=C(C)[C@@H](OC(=O)[C@H](O)[C@@H](NC(=O)OC(C)(C)C)c4ccccc4)C[C@@](O)([C@@H](OC(=O)c4ccccc4)[C@H]21)C3(C)C [Docetaxel] + Cc1nc(NC(=O)N2CCC[C@H]2C(N)=O)sc1-c1ccnc(C(C)(C)C(F)(F)F)c1 [Alpelisib] (partner 2 µM)', 0.156),
  ('CC(=O)O[C@@]12CO[C@@H]1C[C@H](O)[C@@]1(C)C(=O)[C@H](O)C3=C(C)[C@@H](OC(=O)[C@H](O)[C@@H](NC(=O)OC(C)(C)C)c4ccccc4)C[C@@](O)([C@@H](OC(=O)c4ccccc4)[C@H]21)C3(C)C [Docetaxel] + CS(=O)(=O)N1CCN(Cc2cc3nc(-c4cccc5[nH]ncc45)nc(N4CCOCC4)c3s2)CC1 [Pictilisib] (partner 1 µM)', 0.132),
  ('CC(=O)O[C@@]12CO[C@@H]1C[C@H](O)[C@@]1(C)C(=O)[C@H](O)C3=C(C)[C@@H](OC(=O)[C@H](O)[C@@H](NC(=O)OC(C)(C)C)c4ccccc4)C[C@@](O)([C@@H](OC(=O)c4ccccc4)[C@H]21)C3(C)C [Docetaxel] + C[C@@H](Oc1cc(-c2cnn(C3CCNCC3)c2)cnc1N)c1c(Cl)ccc(F)c1Cl [Crizotinib] (partner 1 µM)', 0.197);
